Target: T1, purified recombinant human Napi2b antigen consisting of Napi2b-extracellular-loop2 expressed as … (human, UniProt O95436 234-362, limits assumed)
T1 construct: Expressed in Expi-HEK293 cells; also called immobilized human NaPi2B; not shown: Fc part; 6-His tag
T1 sequence: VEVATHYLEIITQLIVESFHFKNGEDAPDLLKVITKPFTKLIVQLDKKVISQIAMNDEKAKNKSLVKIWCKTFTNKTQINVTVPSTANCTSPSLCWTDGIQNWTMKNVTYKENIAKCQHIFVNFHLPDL
Assay: ELISA, coated Napi2b-extracellular-loop2-Fc-6-His, apparent KD from one-site fit
I'd be grateful if you could share measured Kd for these entries.
Write the answer as a number in µg/mL, unit excluded.

Which value of Kd has been reported for AV-15 antibody (antibody, human IgG1, kappa, L234A L235A, V domains shown) VH: EVQLVQSGAEVVKPGASVKMSCKASGYTFTGYNIHWVKQAPGQGLEWIGAIYPGNGDTSYKQKFRGRATLTADTSTSTVYMELSSLRSEDSAVYYCARGETARATFAYWGQGTLVTVSS VL: DIQMTQSPSSLSASVGDRVTITCSASQDIGKFLNWYQQKPGKTVKVLIYYSSSLYSGVPSRFSGSGSGTDYTLTISSLQPEDFATYYCQQYSKVPLTFGQGTKLELKR in the records?
0.0158

Same for AV-18 antibody (antibody, human IgG1, kappa, L234A L235A, V domains shown) VH: EVQLVQSGAEVVKPGASVKMSCKASGYTFTGYIIHWVKQAPGQGLEWIGAIYPGSGATSYKQKFRGRATLTADTSTSTVYMELSSLRSEDSAVYYCARGETARATFAYWGQGTLVTVSS VL: DIQMTQSPSSLSASVGDRVTITCSASQDIGNFLNWYQQKPGKTVKVLIYYTSSLYSGVPSRFSGSGSGTDYTLTISSLQPEDFATYYCQQYSKLPLTFGQGTKLELKR
0.0149

Same for AV-21 antibody (antibody, human IgG1, kappa, L234A L235A, V domains shown) VH: EVQLVQSGAEVVKPGASVKMSCKASGYTFTGQIIHWVKQAPGQGLEWIGAISPGNSGTSYKQKFRGRATLTADTSTSTVYMELSSLRSEDSAVYYCARGETARATFAYWGQGTLVTVSS VL: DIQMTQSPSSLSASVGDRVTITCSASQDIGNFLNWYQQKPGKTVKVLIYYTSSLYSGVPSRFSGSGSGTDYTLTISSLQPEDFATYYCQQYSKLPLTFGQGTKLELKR
0.0125

Same for AV-29 antibody (antibody, human IgG1, kappa, L234A L235A, V domains shown) VH: EVQLVQSGAEVVKPGASVKMSCKASGYTFTGYNILWVKQAPGQGLEWIGAIYPGNGGTSYKQKFRGRATITADTSTSTVYMELSSLRSEDSAVYYCARGEIARATFAYWGQGTLVTVSS VL: DIQMTQSPSSLSASVGDRVTITCSASQDIGNFLNWYQQKPGKTVKVLIYYASSLYSGVPSRFSGSGSGTDYTLTISSLQPEDFATYYCQQYSKLPLTFGQGTKLELKR
0.0124

Same for parental mAb (parental anti-NaPi2b antibody) (antibody, human IgG1, kappa, L234A L235A, V domains shown, also called parental antibody) VH: EVQLVQSGAEVVKPGASVKMSCKASGYTFTGYNIHWVKQAPGQGLEWIGAIYPGNGDTSYKQKFRGRATLTADTSTSTVYMELSSLRSEDSAVYYCARGETARATFAYWGQGTLVTVSS VL: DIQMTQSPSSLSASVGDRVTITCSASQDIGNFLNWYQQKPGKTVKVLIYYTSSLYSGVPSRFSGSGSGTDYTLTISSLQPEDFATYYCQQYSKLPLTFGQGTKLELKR
0.0221
